Where do the numbers come from? From ChEMBL document CHEMBL1126777.

assay: Distribution coefficient was determined; assay type: physicochemical; conditions: octanol/water
endpoint: DC

compound: O=C(Cc1ccc(O)c(CN2CCN(CC(=O)N3CCCC3)CC2)c1)OCC1COc2ccccc2O1 (centres undefined)
DC: 7.1
--
compound: CN1CCN(Cc2cc(CC(=O)OCC3COc4ccccc4O3)ccc2O)CC1 (centres undefined)
DC: 24
--
compound: CCN(CC)CC(=O)Nc1c(C)cccc1C [LIDOCAINE]
DC: 19.2

1. O=C(Cc1ccc(CN2CCCC2)cc1)OCC1COc2ccccc2O1 (centres undefined)
2. O=C(Cc1cc(CN2CCCC2)c(O)c(CN2CCCC2)c1)OCc1cccs1
3. O=C(Cc1ccc(O)c(CN2CCCC2)c1)OCC1COc2ccccc2O1 (centres undefined)
4. O=C(Cc1ccc(O)c(CN2CCC(N3CCCCC3)CC2)c1)OCC1COc2ccccc2O1 (centres undefined)
5. O=C(Cc1cc(CN2CCCC2)c(O)c(CN2CCCC2)c1)OCC1COc2ccccc2O1 (centres undefined)
Task: Ordering criterion: DC; begin with the maximum. Please list the labels according to the requested order.
Output: 3, 1, 4, 5, 2
(3: 36.3, 1: 22.1, 4: 9.6, 5: 2.62, 2: 0.73)
